assay: Biodistribution of radiotracers in normal mice; assay type: in vivo, mouse; settings: normal male mice, 60 min
measurement name: Biodistribution: Muscle (% dose/g)
Report the figure in % dose/g without appending any unit label.

Task: Any idea what its Biodistribution: Muscle is? The compound is C[C@H](NC(=O)CCc1ccc2c(c1)C[N+]13CC[N+]45CC(=O)[O][68Ga-3]41([O]C(=O)C3)([O]c1ccc(CCC(=O)NCCCCCC(=O)NCCCC[C@H](NC(=O)N[C@@H](CCC(=O)O)C(=O)O)C(=O)O)cc1C5)[O]2)C(=O)O (some centres unmarked) [[^68Ga]1d]
Output: 0.50

Task: Again, but for O=C(O)CC[C@H](NC(=O)N[C@@H](CCCCNC(=O)CCCCCNC(=O)CCc1ccc2c(c1)C[N+]13CC[N+]45CC(=O)[O][68Ga-3]14([O]C(=O)C3)([O]2)[O]c1ccc(CCC(=O)NCCNC(=O)CN2CCN(CC(=O)O)CCN(CC(=O)O)CCN(CC(=O)O)CC2)cc1C5)C(=O)O)C(=O)O (some centres unmarked) [[^68Ga]1g]
Output: 0.30

---

assay: Biodistribution of radiotracers in normal mice; format: in vivo, mouse; conditions: normal male mice, 60 min
Assign Biodistribution: Liver to each entry below.
Report the figure in % dose/g without appending any unit label.

Task: Any idea what its Biodistribution: Liver is? The compound is O=C(O)CC[C@H](NC(=O)CCc1ccc2c(c1)C[N+]13CC[N+]45CC(=O)[O][68Ga-3]41([O]C(=O)C3)([O]c1ccc(CCC(=O)NCCCCCC(=O)NCCCC[C@H](NC(=O)N[C@@H](CCC(=O)O)C(=O)O)C(=O)O)cc1C5)[O]2)C(=O)O (stereo partly shown) [[^68Ga]1f]
Output: 0.79

Task: Again, but for O=C(O)CCc1ccc2c(c1)C[N+]13CC[N+]45CC(=O)[O][68Ga-3]14([O]C(=O)C3)([O]2)[O]c1ccc(CCC(=O)NCCCCCC(=O)NCCCC[C@H](NC(=O)N[C@@H](CCC(=O)O)C(=O)O)C(=O)O)cc1C5 (stereo partly shown) [[^68Ga]1a, reference compound]
Output: 6.09

Task: Again, but for O=C(O)CC[C@H](NC(=O)N[C@@H](CCCCNC(=O)CCCCCNC(=O)CCc1ccc2c(c1)C[N+]13CC[N+]45CC(=O)[O][68Ga-3]14([O]C(=O)C3)([O]2)[O]c1ccc(CCC(=O)NCC(=O)O)cc1C5)C(=O)O)C(=O)O (stereo partly shown) [[^68Ga]1c]
Output: 0.79

Task: Again, but for O=C(O)CC[C@H](NC(=O)N[C@@H](CCCCNC(=O)CCCCCNC(=O)CCc1ccc2c(c1)C[N+]13CC[N+]45CC(=O)[O][68Ga-3]14([O]C(=O)C3)([O]2)[O]c1ccc(CCC(=O)N[C@@H](CC(=O)O)C(=O)O)cc1C5)C(=O)O)C(=O)O (stereo partly shown) [[^68Ga]1e]
Output: 0.35

---

assay: Biodistribution of radiotracers in normal mice; format: in vivo, mouse; settings: normal male mice, 30 min
measurement name: Biodistribution: Lung (% dose/g)
Report the figure in % dose/g without appending any unit label.

Task: Any idea what its Biodistribution: Lung is? The compound is O=C(O)CCc1ccc2c(n1)C[N+]13CC[N+]45CC(=O)[O][68Ga-3]14([O]C(=O)C3)([O]2)[O]c1ccc(CCC(=O)NCCCCCC(=O)NCCCC[C@H](NC(=O)N[C@@H](CCC(=O)O)C(=O)O)C(=O)O)nc1C5 (some centres unmarked) [[^68Ga]2]
Output: 1.07

Task: Again, but for O=C(O)CCc1ccc2c(c1)C[N+]13CC[N+]45CC(=O)[O][68Ga-3]14([O]C(=O)C3)([O]2)[O]c1ccc(CCC(=O)NCC(=O)N[C@@H](Cc2ccc(OCC(=O)N[C@@H](Cc3ccccc3)C(=O)NCCCC[C@H](NC(=O)N[C@@H](CCC(=O)O)C(=O)O)C(=O)O)cc2)C(=O)O)cc1C5 (some centres unmarked) [[^68Ga]5b]
Output: 2.63

---

assay: Biodistribution of radiotracers in normal mice; type: in vivo, mouse; conditions: normal male mice, 60 min
Assign Biodistribution: Heart to each entry below.
Report the figure in % dose/g without appending any unit label.

Task: Any idea what its Biodistribution: Heart is? The molecule is O=C(O)CCc1ccc2c(c1)C[N+]13CC[N+]45CC(=O)[O][68Ga-3]14([O]C(=O)C3)([O]2)[O]c1ccc(CCC(=O)NCCCCCC(=O)NCCCC[C@H](NC(=O)N[C@@H](CCC(=O)O)C(=O)O)C(=O)O)cc1C5 (stereo partly drawn) [[^68Ga]1a, reference compound]
Output: 0.34

Task: Again, but for O=C(O)CC[C@H](NC(=O)N[C@@H](CCCCNC(=O)CCCCCNC(=O)CCc1ccc2c(c1)C[N+]13CC[N+]45CC(=O)[O][68Ga-3]14([O]C(=O)C3)([O]2)[O]c1ccc(CCC(=O)N[C@@H](CC(=O)O)C(=O)O)cc1C5)C(=O)O)C(=O)O (stereo partly drawn) [[^68Ga]1e]
Output: 0.28

Task: Again, but for C[C@H](NC(=O)CCc1ccc2c(c1)C[N+]13CC[N+]45CC(=O)[O][68Ga-3]41([O]C(=O)C3)([O]c1ccc(CCC(=O)NCCCCCC(=O)NCCCC[C@H](NC(=O)N[C@@H](CCC(=O)O)C(=O)O)C(=O)O)cc1C5)[O]2)C(=O)O (stereo partly drawn) [[^68Ga]1d]
Output: 0.42

Task: Again, but for O=C(O)CC[C@H](NC(=O)N[C@@H](CCCCNC(=O)CCCCCNC(=O)CCc1ccc2c(c1)C[N+]13CC[N+]45CC(=O)[O][68Ga-3]14([O]C(=O)C3)([O]2)[O]c1ccc(CCC(=O)NCCNC(=O)CN2CCN(CC(=O)O)CCN(CC(=O)O)CCN(CC(=O)O)CC2)cc1C5)C(=O)O)C(=O)O (stereo partly drawn) [[^68Ga]1g]
Output: 0.27

Task: Again, but for O=C(O)CC[C@H](NC(=O)CCc1ccc2c(c1)C[N+]13CC[N+]45CC(=O)[O][68Ga-3]41([O]C(=O)C3)([O]c1ccc(CCC(=O)NCCCCCC(=O)NCCCC[C@H](NC(=O)N[C@@H](CCC(=O)O)C(=O)O)C(=O)O)cc1C5)[O]2)C(=O)O (stereo partly drawn) [[^68Ga]1f]
Output: 0.52

Task: Again, but for O=C(O)CC[C@H](NC(=O)N[C@@H](CCCCNC(=O)CCCCCNC(=O)CCc1ccc2c(c1)C[N+]13CC[N+]45CC(=O)[O][68Ga-3]14([O]C(=O)C3)([O]2)[O]c1ccc(CCC(=O)NCC(=O)O)cc1C5)C(=O)O)C(=O)O (stereo partly drawn) [[^68Ga]1c]
Output: 0.43

---

Assign Biodistribution: Brain to each entry below.
experiment: Biodistribution of radiotracers in normal mice; format: in vivo, mouse; conditions: normal male mice, 2 min
Report the figure in % dose/g without appending any unit label.

Task: Any idea what its Biodistribution: Brain is? The compound is O=C(O)CC[C@H](NC(=O)N[C@@H](CCCCNC(=O)CCCCCNC(=O)CCc1ccc2c(c1)C[N+]13CC[N+]45CC(=O)[O][68Ga-3]14([O]C(=O)C3)([O]2)[O]c1ccc(CCC(=O)NCC(=O)O)cc1C5)C(=O)O)C(=O)O (stereo partly shown) [[^68Ga]1c]
Output: 0.28

Task: Again, but for O=C(O)CCc1ccc2c(c1)C[N+]13CC[N+]45CC(=O)[O][68Ga-3]14([O]C(=O)C3)([O]2)[O]c1ccc(CCC(=O)NCCCCCC(=O)NCCCC[C@H](NC(=O)N[C@@H](CCC(=O)O)C(=O)O)C(=O)O)cc1C5 (stereo partly shown) [[^68Ga]1a, reference compound]
Output: 0.25

Task: Again, but for O=C(O)CCc1ccc2c(c1)C[N+]13CC[N+]45CC(=O)[O][68Ga-3]14([O]C(=O)C3)([O]2)[O]c1ccc(CCC(=O)NCC(=O)N[C@@H](Cc2ccc(OCC(=O)N[C@@H](Cc3ccccc3)C(=O)NCCCC[C@H](NC(=O)N[C@@H](CCC(=O)O)C(=O)O)C(=O)O)cc2)C(=O)O)cc1C5 (stereo partly shown) [[^68Ga]5b]
Output: 0.19

Task: Again, but for O=C(O)CC[C@H](NC(=O)CCc1ccc2c(c1)C[N+]13CC[N+]45CC(=O)[O][68Ga-3]41([O]C(=O)C3)([O]c1ccc(CCC(=O)NCCCCCC(=O)NCCCC[C@H](NC(=O)N[C@@H](CCC(=O)O)C(=O)O)C(=O)O)cc1C5)[O]2)C(=O)O (stereo partly shown) [[^68Ga]1f]
Output: 0.25

---

experiment: Biodistribution of radiotracers in normal mice; type: in vivo, mouse; conditions: normal male mice, 120 min
measurement name: Biodistribution: Muscle (% dose/g)
Report the figure in % dose/g without appending any unit label.

Task: Any idea what its Biodistribution: Muscle is? The compound is O=C(O)CC[C@H](NC(=O)N[C@@H](CCCCNC(=O)CCCCCNC(=O)CCc1ccc2c(n1)C[N+]13CC[N+]45CC(=O)[O][68Ga-3]14([O]C(=O)C3)([O]2)[O]c1ccc(CCC(=O)NCCCCCC(=O)NCCCC[C@H](NC(=O)N[C@@H](CCC(=O)O)C(=O)O)C(=O)O)nc1C5)C(=O)O)C(=O)O (stereo partly drawn) [[^68Ga]3]
Output: 1.13

Task: Again, but for O=C(O)CCc1ccc2c(c1)C[N+]13CC[N+]45CC(=O)[O][68Ga-3]14([O]C(=O)C3)([O]2)[O]c1ccc(CCC(=O)NCC(=O)N[C@@H](Cc2ccc(OCC(=O)N[C@@H](Cc3ccccc3)C(=O)NCCCC[C@H](NC(=O)N[C@@H](CCC(=O)O)C(=O)O)C(=O)O)cc2)C(=O)O)cc1C5 (stereo partly drawn) [[^68Ga]5b]
Output: 0.16

Task: Again, but for O=C(O)CCc1ccc2c(n1)C[N+]13CC[N+]45CC(=O)[O][68Ga-3]14([O]C(=O)C3)([O]2)[O]c1ccc(CCC(=O)NCCCCCC(=O)NCCCC[C@H](NC(=O)N[C@@H](CCC(=O)O)C(=O)O)C(=O)O)nc1C5 (stereo partly drawn) [[^68Ga]2]
Output: 0.18

Task: Again, but for O=C(O)CCc1ccc2c(c1)C[N+]13CC[N+]45CC(=O)[O][68Ga-3]14([O]C(=O)C3)([O]2)[O]c1ccc(CCC(=O)NCCCCCC(=O)NCCCC[C@H](NC(=O)N[C@@H](CCC(=O)O)C(=O)O)C(=O)O)cc1C5 (stereo partly drawn) [[^68Ga]1a, reference compound]
Output: 0.12

Task: Again, but for O=C(O)CCc1ccc(O)c(CN(CCN(CC(=O)O)Cc2cc(CCC(=O)NCCCCCC(=O)NCCCC[C@H](NC(=O)N[C@@H](CCC(=O)O)C(=O)O)C(=O)O)ccc2O)CC(=O)O)n1 [[^68Ga]4a, metal not drawn]
Output: 0.20

Task: Again, but for O=C(O)CC[C@H](NC(=O)N[C@@H](CCCCNC(=O)CCCCCNC(=O)CCc1ccc2c(c1)C[N+]13CC[N+]45CC(=O)[O][68Ga-3]14([O]C(=O)C3)([O]2)[O]c1ccc(CCC(=O)NCCNC(=O)CN2CCN(CC(=O)O)CCN(CC(=O)O)CCN(CC(=O)O)CC2)cc1C5)C(=O)O)C(=O)O (stereo partly drawn) [[^68Ga]1g]
Output: 0.23
